experiment: Stat Signaling Pathway (AID 446); details: ME-180 (cervical carcinoma) SIE beta-lactamase reporter, IL-6 stimulated, 5 h; at 7.69 µM (top of the series) unless noted;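 note: ME-180 cervical cancer cells given 40 pM IL-6 alongside compound; SIE-controlled beta-lactamase reporter measured as 460/530 nm FRET emission ratio; % is set by controls: 0 for no effect and ±100 for the full control effect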
Results filed as inconclusive are left out.
Item-by-item account of activity, negative = inhibition
Give just the numeric value; % need not be written.

Guide cases for activity, negative = inhibition, answers given:
SMILES STRING | UNIT SYMBOL | activity, negative = inhibition
CC(C)N(Cc1ccccc1)S(=O)(=O)c1n[nH]c(C(C)(C)C)n1 | % | -2.12
COCCn1c(=O)cnc2cnc(N3CCNCC3)nc21 | % | -2.85

Q: # query: activity, negative = inhibition of entry CN(C)Cc1cc(C(F)(F)F)ccc1C(O)(c1ccccc1)c1ccccc1
Ans: 9.65

Q: Which activity, negative = inhibition is listed for CN(C)C[C@H]1CCC[C@@H](CN(C)C)C1=O ?
Ans: 3.25

Q: Query: activity, negative = inhibition; subject: Clc1nc(NCCc2ccccc2)c2ncn(-c3ccccc3)c2n1
Ans: -22.9

Q: Please look up its activity, negative = inhibition: O=C(Nc1ccc2ncccc2c1)Nc1ccc2ncccc2c1
Ans: -14.3

* * *

experiment: NFAT Signaling Pathway (AID 444); conditions: Jurkat NFAT-bla M1, carbachol, beta-lactamase ratio, 5 h; at 7.69 µM (top of the series) unless noted;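 note: carbachol stimulus at about its EC50 of 1 µM final; % is set by controls: 0 for no effect and ±100 for the full control effect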
Records with an inconclusive call do not appear. Activity calls are given as the source filed them. Calls come from the whole dose curve; as a rule, active = well fitted curve in either direction with a large enough effect (not every such curve was filed as active); inconclusive = small, poorly fitted or top-dose-only effect, or another doubt; inactive = flat fitted curve, though single readings scatter. Residues, ends and D or L forms follow the SMILES beside them.
Let's look at some compounds and their measured activity change, negative = inhibition.

COMPOUND | activity change, negative = inhibition
CCOC(=O)c1c(C)c(C)n2c1NC(=O)C2 | -19.4% (inactive)

Q: Could you share which activity change, negative = inhibition value was measured for Cc1ccn2c(CCc3nnc4cc(C)ccn34)nnc2c1 ?
Ans: 11% (inactive)

Q: Query: activity change, negative = inhibition; subject: O=C(O)c1cc(N=Cc2ccccc2O)cc(C(=O)O)c1
Ans: 17.2% (inactive)

Q: Return reported activity change, negative = inhibition; argument: Cc1cc(N2CCOCC2)nc2ccc(Cc3ccc4nc(N5CCOCC5)cc(C)c4c3)cc12
Ans: -6.47% (inactive)

Q: Fill in the blank: the reported activity change, negative = inhibition of FC(F)(F)c1nc(SCc2ccc(Cl)cc2)n[nH]1 is ____.
Ans: -9.79% (inactive)

Q: Look up activity change, negative = inhibition for this compound: O=C(O)CSc1n[nH]c(=O)[nH]c1=O
Ans: 5.38% (inactive)

Q: Quick one: activity change, negative = inhibition of O=C(O)Cc1c[nH]c2ccc(F)cc12 ?
Ans: 24.2% (inactive)

Q: Quick one: activity change, negative = inhibition of NCC(=O)NC1(C(=O)O)CCCC1 (HELM PEPTIDE1{G.[O=C(O)C1(N[*:1])CCCC1]}$$$$V2.0) ?
Ans: -2.62% (inactive)

Q: Look at this compound and give its reported activity change, negative = inhibition. O=P(O)(CCP(=O)(O)c1ccccc1)c1ccccc1
Ans: 12.9% (inactive)

Q: What value of activity change, negative = inhibition has been reported for the following compound? C[C@@H]1O[C@@H](O)[C@@H](O)[C@H](O)[C@H]1O
Ans: 13.9% (inactive)

Q: I am curious: what activity change, negative = inhibition value has been reported for CN(C)CC(CN(C)C)c1ccccn1 ?
Ans: 10.8% (inactive)
